Values from BindingDB's records for doi:10.1021/acsmedchemlett.9b00264

# Procedure details: Inhibition of JMJD6 in human […] cells assessed as decrease in cell proliferation measured after 72 hrs by CellTiter 96 AQueous one solution cell proliferation assay
Property name: IC50 (µM)
Enter your answer as a number in µM; do not include the unit.

Lab note: Cc1ccc2oc(=O)c(-c3nc4cnccc4[nH]3)cc2c1 gave IC50 of 10.2
